This collection of values is drawn from patent US8269000B2.

Biological target: rat B1R (Rattus norvegicus, UniProt P97583)
Construct: expressed in transfected cells; host or cells: CHO K1 cells
Sequence (P97583 1-337): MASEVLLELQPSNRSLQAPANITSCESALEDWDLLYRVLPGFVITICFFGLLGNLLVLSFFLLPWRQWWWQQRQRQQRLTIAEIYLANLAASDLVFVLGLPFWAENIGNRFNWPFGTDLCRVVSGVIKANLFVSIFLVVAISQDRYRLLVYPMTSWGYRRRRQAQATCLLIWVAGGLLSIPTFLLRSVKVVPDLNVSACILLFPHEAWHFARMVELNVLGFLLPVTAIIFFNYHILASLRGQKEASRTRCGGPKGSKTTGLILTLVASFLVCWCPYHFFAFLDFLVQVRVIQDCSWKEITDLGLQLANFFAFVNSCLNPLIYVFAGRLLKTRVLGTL
Test: FLIPR Ca2+ functional study on bradykinin receptor 1 (rB1R CHO K1 cells)
Assay type: cell-based
Conditions: CHO-K1, % inhibition rat B1R at 10 μM, read-out: % inh. (rat B1R) 10 μM
As shown below, each of these compounds has a reported inhibition at 10 µM value.
Give a bare numeral; the unit % is implied.

Past entries and their recorded results:
# compound, result.unit, inhibition at 10 µM
rows = [
    ("COc1cc(C)c(S(=O)(=O)N(C)C(COc2nccc(N3CCC(C)(N4CCOCC4)CC3)n2)c2ccccc2)c(C)c1 (stereo not shown) [G_CC-137]", "%", 77),
    ("COc1cc(C)c(S(=O)(=O)N2CC(Oc3ccnc(N4CCC(N5CCN(C)CC5)CC4)n3)C2)c(C)c1 [H_CC-015]", "%", 56),
    ("COc1cc(C)c(S(=O)(=O)N2CCC[C@H]2COc2ccnc(N3CCC(OCCN4CCCC4)(c4cccc(F)c4)CC3)n2)c(C)c1 [H_CC-092]", "%", 50),
]

Let us move to another entry and its inhibition at 10 µM.
**Q:** Which inhibition at 10 µM is reported with rat B1R (Rattus norvegicus, UniProt P97583) for this entry: COc1cc(C)c(S(=O)(=O)N2CCCCC2COc2ccnc(N3CCCN(Cc4ccccn4)CC3)n2)c(C)c1 (stereo not shown) [H_CC-042] ?
**A:** 61
